# testTarget: XIAP-BIR3 (Homo sapiens, UniProt P98170)
# Construct: X-IAP BIR3 (amino acids residues 241-356); made in house; host or cells: Escherichia coli BL21 (DE3)
# Sequence (P98170 241-356): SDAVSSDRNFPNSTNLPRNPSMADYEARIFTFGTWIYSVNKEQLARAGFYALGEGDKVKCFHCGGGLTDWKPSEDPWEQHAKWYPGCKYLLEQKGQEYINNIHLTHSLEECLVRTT
# measurementDescription: fluorescence polarization competition assay, XIAP-BIR3
# Format: binding
# testSettings: Table 4, P4 amino acid/phenylethylamine scan; Hid-FAM probe
Non-standard residues stand in square brackets, D forms with d. Residues, ends and D or L forms follow the SMILES beside them. Phe(ol) = N[C@H](CO)Cc1ccccc1
Please provide measured Ki for the entries that follow.
A complete answer gives the number and then names the unit.

# input Write down Ki measured for item CC(C)[C@H](NC(=O)[C@H](C)N)C(=O)N1CCC[C@H]1C(=O)N[C@H]1C[C@@H]1c1ccccc1 [AVPX28b]
# output 1400 nM

# input Write down Ki measured for item CC(C)[C@H](NC(=O)[C@H](C)N)C(=O)N1CCC[C@H]1C(=O)N[C@@H]1C[C@H]1c1ccccc1 [AVPX28a]
# output 7600 nM

# input Write down Ki measured for item CC(C)[C@H](NC(=O)[C@H](C)N)C(=O)N1CCC[C@H]1C(=O)N[C@H](CO)Cc1ccccc1 [AVPX32] (H-AVP[Phe(ol)]; N-terminus assumed)
# output 390 nM

###

# testTarget: XIAP-BIR3 (Homo sapiens)
# Construct: X-IAP BIR3 (amino acids residues 241-356); made in house; host or cells: Escherichia coli BL21 (DE3)
# measurementDescription: fluorescence polarization competition assay, XIAP-BIR3
# Type: binding
# Procedure: The apparent Kd values can be determined from the EC50 values. The vectors pET15b-XIAPBIR2C202AC218G, pET15b-XIAPBIR3, and pET15b-MLIAPBIR were introduced into Escherichia coli strain BL21 (DE3). Overnight cultures were diluted 1:100 and grown at 30° C. in LB media with […] to an A600 of 0.5-0.7 with vigorous shaking. […] The apparent Kd values were determined from the EC50 values. […] Samples were read after a 10-minute incubation.
No end group written: not given here.
Please provide measured pKi for the entries that follow.
pKi is defined as minus the log10 of a concentration measured in mol/L.

# input Write down pKi measured for item `AIPFEEKSE`
# output 6.23

# input Write down pKi measured for item `AVPWGLKSE`
# output 6.27

###

# testTarget: ML-IAP-BIR (Homo sapiens, UniProt Q96CA5)
# Construct: made in house; host or cells: Escherichia coli BL21 (DE3)
# measurementDescription: fluorescence polarization competition assay, ML-IAP-BIR
# Type: binding
# testSettings: Table 4, P4 amino acid/phenylethylamine scan; Hid-FAM probe
measuredAttribute: Ki (nM)
Lab book: enter the figure in nM, no units written.

# input Provide measured Ki on ML-IAP-BIR (Homo sapiens, UniProt Q96CA5) for CC(C)[C@H](NC(=O)[C@H](C)N)C(=O)N1CCC[C@H]1C(=O)NCCc1cccc(C(F)(F)F)c1 [AVPX26] please.
# output 1900

# input Provide measured Ki on ML-IAP-BIR (Homo sapiens, UniProt Q96CA5) for COC[C@H](Cc1ccccc1)NC(=O)[C@@H]1CCCN1C(=O)[C@@H](NC(=O)[C@H](C)N)C(C)C [AVPX38] please.
# output 150

# input Provide measured Ki on ML-IAP-BIR (Homo sapiens, UniProt Q96CA5) for CC(C)[C@H](NC(=O)[C@H](C)N)C(=O)N1CCC[C@H]1C(=O)NC[C@H](O)c1ccccc1 [AVPX33] please.
# output 310

###

# testTarget: ML-IAP-BIR (Homo sapiens, UniProt Q96CA5)
# Construct: made in house; host or cells: Escherichia coli BL21 (DE3)
# measurementDescription: fluorescence polarization competition assay, ML-IAP-BIR
# Format: binding
# testSettings: Table 4, P4 amino acid/phenylethylamine scan; Hid-FAM probe
Non-standard residues stand in square brackets, D forms with d. Residues, ends and D or L forms follow the SMILES beside them. Phe(ol) = N[C@H](CO)Cc1ccccc1
measuredAttribute: Ki (nM)
Lab book: enter the figure in nM, no units written.

# input Write down Ki measured for item `CC(C)[C@H](NC(=O)[C@H](C)N)C(=O)N1CCC[C@H]1C(=O)N[C@@H](CO)[C@@H](O)c1ccccc1`
# output 1500

# input Write down Ki measured for item CC(C)[C@H](NC(=O)[C@H](C)N)C(=O)N1CCC[C@H]1C(=O)N[C@@H]1C[C@H]1c1ccccc1 [AVPX28a]
# output 850

# input Write down Ki measured for item `CC(C)[C@H](NC(=O)[C@H](C)N)C(=O)N1CCC[C@H]1C(=O)N[C@H](CO)[C@H](O)c1ccccc1`
# output 410

# input Write down Ki measured for item `CC(C)[C@H](NC(=O)[C@H](C)N)C(=O)N1CCC[C@H]1C(=O)NCC(c1ccccc1)c1ccccc1`
# output 30

# input Write down Ki measured for item `CC(C)[C@H](NC(=O)[C@H](C)N)C(=O)N1CCC[C@H]1C(=O)NCCc1cccc(F)c1`
# output 870

# input Write down Ki measured for item `CC[C@H](C)[C@H](NC(=O)[C@@H]1CCCN1C(=O)[C@@H](NC(=O)[C@H](C)N)C(C)C)C(=O)O`
# output 330

# input Write down Ki measured for item CC(C)[C@H](NC(=O)[C@H](C)N)C(=O)N1CCC[C@H]1C(=O)N[C@H]1C[C@@H]1c1ccccc1 [AVPX28b]
# output 1000

# input Write down Ki measured for item `CCOc1ccccc1CCNC(=O)[C@@H]1CCCN1C(=O)[C@@H](NC(=O)[C@H](C)N)C(C)C`
# output 300

# input Write down Ki measured for item CC(C)[C@H](NC(=O)[C@H](C)N)C(=O)N1CCC[C@H]1C(=O)N[C@H](CO)Cc1ccccc1 [AVPX32] (H-AVP[Phe(ol)]; N-terminus assumed)
# output 90

# input Write down Ki measured for item CC(C)[C@H](NC(=O)[C@H](C)N)C(=O)N1CCC[C@H]1C(=O)N[C@@H](Cc1ccccc1)C(=O)O [AVPF] (H-AVPF-OH; N-terminus assumed)
# output 90

# input Write down Ki measured for item `COc1ccc(Br)cc1CCNC(=O)[C@@H]1CCCN1C(=O)[C@@H](NC(=O)[C@H](C)N)C(C)C`
# output 1300

# input Write down Ki measured for item `CCOc1cccc(CCNC(=O)[C@@H]2CCCN2C(=O)[C@@H](NC(=O)[C@H](C)N)C(C)C)c1`
# output 780

# input Write down Ki measured for item CC(CNC(=O)[C@@H]1CCCN1C(=O)[C@@H](NC(=O)[C@H](C)N)C(C)C)c1ccccc1 (some centres unmarked)
# output 270

# input Write down Ki measured for item `CC(C)[C@H](NC(=O)[C@H](C)N)C(=O)N1CCC[C@H]1C(=O)NCCc1cccc(Cl)c1`
# output 680
